# system: UniProt:P56373
# test method notes: Evaluation of human P2X3 receptor inhibitory activity (Fluo-3 calcium fluorescence, FDSS 3000, ATP stimulation)
# Format: cell-based
# test parameters: C6BU-1 cells stably expressing human P2X3 receptor
pIC50: −log10 of the molar value.
Please note: Met applies when pIC50 is 8 or greater, and Not met applies otherwise.

### Prompt Exam item: decide whether the reported pIC50 for CCn1c(=O)[nH]/c(=N\c2ccc(Oc3ccc([N+](=O)[O-])nc3)cc2)n(Cc2ccc(Cl)cc2)c1=O is at least 8.
### Response Met

### Prompt Exam item: decide whether the reported pIC50 for Cc1ccc(Cn2c(=O)n(C[C@H](C)C(=O)O)c(=O)[nH]/c2=N\c2ccc(CC(C)C)c(F)c2)cc1 is at least 8.
### Response Not met

### Prompt Exam item: decide whether the reported pIC50 for Cc1ccc(Cn2c(=O)n(CCCC(=O)O)c(=O)[nH]/c2=N\c2ccc(Oc3ccnc(C)c3)cc2)cc1 is at least 8.
### Response Not met

### Prompt Exam item: decide whether the reported pIC50 for CCCc1ccc(/N=c2\[nH]c(=O)n(C[C@H](C)C(=O)OC)c(=O)n2Cc2ccc(Cl)cc2)cc1C is at least 8.
### Response Not met

### Prompt Exam item: decide whether the reported pIC50 for CCOC(=O)Cc1c(C)oc2ccc(/N=c3\[nH]c(=O)n(CC)c(=O)n3Cc3ccc(Cl)cc3)cc12 is at least 8.
### Response Not met

### Prompt Exam item: decide whether the reported pIC50 for Cc1ccc(Cn2c(=O)n(C[C@H](C)C(=O)O)c(=O)[nH]/c2=N\c2ccc(CCC3CC3)cc2)cc1 is at least 8.
### Response Not met

---

Field: IC50. Provide a value for each of the molecules that follow.
# system: human P2X3 receptor (Homo sapiens (Human))
# Sequence (P56373 whole entry): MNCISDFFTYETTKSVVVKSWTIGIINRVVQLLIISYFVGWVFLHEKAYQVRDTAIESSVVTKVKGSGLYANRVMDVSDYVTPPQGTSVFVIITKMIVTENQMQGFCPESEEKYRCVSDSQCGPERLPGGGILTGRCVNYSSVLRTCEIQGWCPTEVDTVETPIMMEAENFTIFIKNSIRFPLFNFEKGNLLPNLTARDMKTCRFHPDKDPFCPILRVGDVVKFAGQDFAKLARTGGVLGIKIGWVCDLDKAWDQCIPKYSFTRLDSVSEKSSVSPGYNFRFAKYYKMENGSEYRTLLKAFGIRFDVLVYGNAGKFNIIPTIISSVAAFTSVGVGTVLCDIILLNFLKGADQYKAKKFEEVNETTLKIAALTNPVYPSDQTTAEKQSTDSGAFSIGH
# test method notes: Evaluation of human P2X3 receptor inhibitory activity (Fluo-3 calcium fluorescence, FDSS 3000, ATP stimulation);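 further: stimulus was 50 nM ATP with fluorescence followed for 3 min, and the response per well was peak post-ATP fluorescence divided by the reading at measurement start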
# Format: cell-based
# test parameters: C6BU-1 cells stably expressing human P2X3 receptor
Expressed in µM, but write only the number.

### Prompt Give IC50 (human P2X3 receptor (Homo sapiens (Human))) of the following molecule: CNC(=O)Cn1c(=O)[nH]/c(=N\c2ccc(Oc3ccnc(C)c3)cc2)n(Cc2ccc(Cl)cc2)c1=O
### Response 0.007

### Prompt Give IC50 (human P2X3 receptor (Homo sapiens (Human))) of the following molecule: COc1cc(/N=c2\[nH]c(=O)n(CC(CO)CO)c(=O)n2Cc2ccc(Cl)cc2)ccc1OC(C)C
### Response 0.011

### Prompt Give IC50 (human P2X3 receptor (Homo sapiens (Human))) of the following molecule: CCCc1ccc(/N=c2\[nH]c(=O)n(C[C@H](C)C(=O)O)c(=O)n2Cc2ccc(C)cc2)cc1OC
### Response 0.094

### Prompt Give IC50 (human P2X3 receptor (Homo sapiens (Human))) of the following molecule: Cc1cc(/N=c2\[nH]c(=O)n(CCCC(=O)N3CCOCC3)c(=O)n2Cc2ccc(Cl)cc2)ccc1OC(C)C
### Response 0.024

### Prompt Give IC50 (human P2X3 receptor (Homo sapiens (Human))) of the following molecule: COC(=O)[C@@H](C)Cn1c(=O)[nH]/c(=N\c2ccc(OC(C)C)c(Cl)c2)n(Cc2ccc(C)cc2)c1=O
### Response 0.004

### Prompt Give IC50 (human P2X3 receptor (Homo sapiens (Human))) of the following molecule: Cc1cc(Oc2ccc(/N=c3\[nH]c(=O)n(CCC(=O)O)c(=O)n3CC3CCC(C)CC3)cc2)ccn1 (stereo not shown)
### Response 0.017

### Prompt Give IC50 (human P2X3 receptor (Homo sapiens (Human))) of the following molecule: CCn1c(=O)[nH]/c(=N\c2ccc(Oc3cncc(C(=O)O)c3)cc2)n(Cc2ccc(C)cc2)c1=O
### Response 0.008
